Test: Pharmacokinetics in tumor and plasma, NCI-H1975 xenograft mice
Type: in vivo, nude mice
Details: nude, mouse, tumor, ip; 100 mg/kg i.p., single dose; read-out: half-life in the tumor
Readout Type: half-life

1. CN1CCC2(CC1)N=C(SCC(=O)Nc1cnc3ccccc3c1)C(c1ccc(Br)cc1)=N2: > 1440 min

###

System: UM10B cells
Experiment: Clonogenic IC50, UM10B
Assay type: cell-based
Below is a list of entries, each paired with its recorded IC50 value.
Readout Type: IC50 (µM)

1. CN1CCC2(CC1)N=C(SCC(=O)Nc1ccc(F)c(F)c1)C(c1ccc(F)cc1)=N2 [Compound 27]: 8.8
2. CC1(C)N=C(SCC(=O)Nc2ccc(Cl)c(Cl)c2)C(c2ccc(Cl)c(Cl)c2)=N1 [Compound 18]: 2.5
3. CN1CCC2(CC1)N=C(SCC(=O)Nc1ccc(F)c(F)c1)C(c1ccc(C(C)(C)C)cc1)=N2 [Compound 28]: 1
